Bone % ID for assorted compounds
molecular target: PSMA (Rattus norvegicus); construct: ganglia as natural PSMA-expressing tissues remain constant over a long time; from tissue; host or cells: healthy Long Evans rats in vivo; assay: PET study of PSMA-specific tracers in healthy rats; type: in vivo; conditions: PET 60-120 min after injection
Sequence (P70627 whole entry): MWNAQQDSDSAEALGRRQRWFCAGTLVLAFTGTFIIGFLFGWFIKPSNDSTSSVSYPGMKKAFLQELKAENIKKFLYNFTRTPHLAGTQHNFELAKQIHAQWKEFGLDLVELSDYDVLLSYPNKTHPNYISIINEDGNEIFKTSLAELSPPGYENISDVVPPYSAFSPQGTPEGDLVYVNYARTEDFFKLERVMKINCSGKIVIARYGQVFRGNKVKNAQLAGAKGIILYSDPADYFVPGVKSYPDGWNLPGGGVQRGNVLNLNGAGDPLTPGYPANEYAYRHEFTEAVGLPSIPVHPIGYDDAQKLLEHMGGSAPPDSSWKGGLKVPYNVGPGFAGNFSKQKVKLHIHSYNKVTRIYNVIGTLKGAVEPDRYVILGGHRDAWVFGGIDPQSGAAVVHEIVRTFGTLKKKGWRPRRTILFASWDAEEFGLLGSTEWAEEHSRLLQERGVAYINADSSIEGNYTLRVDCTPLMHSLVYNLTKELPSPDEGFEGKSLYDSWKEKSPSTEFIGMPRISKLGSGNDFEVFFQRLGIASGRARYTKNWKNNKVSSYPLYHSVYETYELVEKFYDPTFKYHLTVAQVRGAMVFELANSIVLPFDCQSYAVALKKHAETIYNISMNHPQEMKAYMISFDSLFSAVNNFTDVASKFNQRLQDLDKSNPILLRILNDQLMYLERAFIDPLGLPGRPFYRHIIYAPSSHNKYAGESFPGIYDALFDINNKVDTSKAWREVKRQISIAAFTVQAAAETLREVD
The answer is to be given in % ID; state only the numeric part.

Reference set (3 entries):
[[record]]
compound = "COc1cc([18F])ncc1C(=O)NCCCC[C@H](NC(=O)N[C@@H](CCC(=O)O)C(=O)O)C(=O)O [4-MeO-[^18F]PSMA]"
readout = "Bone % ID"
unit_symbol = "% ID"
experimental_value = 19.2

[[record]]
compound = "O=C(O)CC[C@H](NC(=O)N[C@@H](CCCCNC(=O)[C@H](Cc1ccc2ccccc2c1)NC(=O)c1ccc(CNC(=O)[C@H](CCC(=O)O)NC(=O)[C@H](CCC(=O)O)NC(=O)c2ccc([18F])nc2)cc1)C(=O)O)C(=O)O [[^18F]PSMA-1007]"
readout = "Bone % ID"
unit_symbol = "% ID"
experimental_value = 33.2

[[record]]
compound = "O=C(O)CC[C@H](NC(=O)N[C@@H](CCCCNC(=O)c1ccc([18F])nc1)C(=O)O)C(=O)O [[^18F]DCFPyL]"
readout = "Bone % ID"
unit_symbol = "% ID"
experimental_value = 12.4


Item O=C([O-])CN(CCN(CC(=O)[O-])Cc1cc(CCC(=O)NCCCCCC(=O)NCCCC[C@H](NC(=O)N[C@@H](CCC(=O)O)C(=O)O)C(=O)O)ccc1[O-])Cc1cc(CCC(=O)O)ccc1[O-].[68Ga+3].[OH3+] [[^68Ga]Ga-PSMA-HBED-CC] has what recorded Bone % ID?
18.5

----------
Documented SCG signal-to-noise ratio across a set of compounds
target: PSMA (Rattus norvegicus); construct: ganglia as natural PSMA-expressing tissues remain constant over a long time; from tissue; host or cells: healthy Long Evans rats in vivo; test: PET study of PSMA-specific tracers in healthy rats; format: in vivo; conditions: PET 60-120 min after injection, background dorsal from cervical vertebral column

Worked set:
[[record]]
compound = "COc1cc([18F])ncc1C(=O)NCCCC[C@H](NC(=O)N[C@@H](CCC(=O)O)C(=O)O)C(=O)O [4-MeO-[^18F]PSMA]"
experimental_value = "4.6±1.3"

[[record]]
compound = "O=C([O-])CN(CCN(CC(=O)[O-])Cc1cc(CCC(=O)NCCCCCC(=O)NCCCC[C@H](NC(=O)N[C@@H](CCC(=O)O)C(=O)O)C(=O)O)ccc1[O-])Cc1cc(CCC(=O)O)ccc1[O-].[68Ga+3].[OH3+] [[^68Ga]Ga-PSMA-HBED-CC]"
experimental_value = "4.5±0.1"

[[record]]
compound = "O=C(O)CC[C@H](NC(=O)N[C@@H](CCCCNC(=O)[C@H](Cc1ccc2ccccc2c1)NC(=O)c1ccc(CNC(=O)[C@H](CCC(=O)O)NC(=O)[C@H](CCC(=O)O)NC(=O)c2ccc([18F])nc2)cc1)C(=O)O)C(=O)O [[^18F]PSMA-1007]"
experimental_value = "6.2 ± 1.9"


Consider now this further compound.
Entry COc1nc([18F])ccc1C(=O)NCCCC[C@H](NC(=O)N[C@@H](CCC(=O)O)C(=O)O)C(=O)O [2-MeO-[^18F]PSMA] has what SCG signal-to-noise ratio?
8.2 ± 1.7
